Tested on: Zymoseptoria tritici strain Zt 20
methodNotes: In planta preventive efficacy on wheat cv. Alixan against Zymoseptoria tritici strain Zt 20
Type: in vivo
conditionParameters: 28 dpi; % of length of 2nd leaf blade; preventive 24 h; rate N/2.5 (g a.i./ha): ADF-16 40, penthiopyrad 80, metconazole 36, tebuconazole 100; control 95.5
Quick reference: Disease Severity Intensity of the listed items.

For orientation, consider the following solved cases.
# input Missing value: Disease Severity Intensity, Zymoseptoria tritici strain Zt 20, entry CC1(C)CCC(Cc2ccc(Cl)cc2)C1(O)Cn1cncn1 (stereo not shown) . Fill in?
# output 78.0 +/− 5.0b %

# input // fetch Zymoseptoria tritici strain Zt 20 Disease Severity Intensity for Cc1ccc(S(=O)(=O)n2cc(F)c(=N)n(C)c2=O)cc1
# output 7.3 +/− 1.9f %

# input Write down the reported Disease Severity Intensity of CC(C)CC(C)c1sccc1NC(=O)c1cn(C)nc1C(F)(F)F (stereo not shown) , test system: Zymoseptoria tritici strain Zt 20.
# output 2.0 +/− 1.4g %

Pending compound:
# input Give recorded Disease Severity Intensity with Zymoseptoria tritici strain Zt 20 for the following compound: CC(C)(C)C(O)(CCc1ccc(Cl)cc1)Cn1cncn1 (stereo not shown)
# output 54.8 +/− 3.7c %

----------
Measured Disease Severity Intensity, listed per entry for reference.
System: Zymoseptoria tritici strain Zt 19-52
methodNotes: In planta preventive efficacy on wheat cv. Alixan against Zymoseptoria tritici strain Zt 19-52
Assay type: in vivo
conditionParameters: 28 dpi; % of length of 2nd leaf blade; preventive 24 h; rate N (g a.i./ha): ADF-16 100, penthiopyrad 200, metconazole 90, tebuconazole 250; control 91.0
Procedure: A series of experiments were conducted to evaluate the efficacy of flumetylsulforim (ADF-16) for treating different strains of Zymoseptoria tritici in comparison with commercially available fungicides. […] Disease assessments were carried out at 15 days post inoculation (dpi), 21 dpi and 28 dpi by measuring the length of the necrosis on the second leaf blade. The intensity of infection was then determined as a percentage of the total length of 2nd leaf blade. […]

// worked examples, Disease Severity Intensity included
# input Data request, read-out Disease Severity Intensity, for Cc1ccc(S(=O)(=O)n2cc(F)c(=N)n(C)c2=O)cc1
# output 2.0 +/− 1.4ef %

# input So what does the record say about Disease Severity Intensity for CC1(C)CCC(Cc2ccc(Cl)cc2)C1(O)Cn1cncn1 (stereo not shown) ?
# output 12.0 +/− 1.9c %

# input Data request, read-out Disease Severity Intensity, for CC(C)CC(C)c1sccc1NC(=O)c1cn(C)nc1C(F)(F)F (stereo not shown)
# output 0.0 +/− 0.0f %

For the next question, use this compound.
# input Requested field: Disease Severity Intensity. Item: CC(C)(C)C(O)(CCc1ccc(Cl)cc1)Cn1cncn1 (stereo not shown)
# output 7.9 +/− 2.2cd %

----------
Here the recorded Disease Severity Intensity is given for each entry.
Tested on: Zymoseptoria tritici strain Zt 99
methodNotes: In planta preventive efficacy on wheat cv. Alixan against Zymoseptoria tritici strain Zt 99
Format: in vivo
conditionParameters: 28 dpi; % of length of 2nd leaf blade; preventive 24 h; rate N/2.5 (g a.i./ha): ADF-16 40, penthiopyrad 80, metconazole 36, tebuconazole 100; control 92.2

# input Disease Severity Intensity lookup needed for CC1(C)CCC(Cc2ccc(Cl)cc2)C1(O)Cn1cncn1 (stereo not shown) , thanks.
# output 84.6 +/− 4.3b %

# input molecule: CC(C)(C)C(O)(CCc1ccc(Cl)cc1)Cn1cncn1 (stereo not shown) ; wanted: its Disease Severity Intensity
# output 58.7 +/− 4.6c %

# input Look up Disease Severity Intensity: Cc1ccc(S(=O)(=O)n2cc(F)c(=N)n(C)c2=O)cc1
# output 1.7 +/− 0.8e %

Shift focus to the following entry.
# input Which measured Disease Severity Intensity value corresponds to CC(C)CC(C)c1sccc1NC(=O)c1cn(C)nc1C(F)(F)F (stereo not shown) ?
# output 90.9 +/− 1.6ab %

----------
Tested on: Zymoseptoria tritici strain Zt 19-52
methodNotes: In planta preventive efficacy on wheat cv. Alixan against Zymoseptoria tritici strain Zt 19-52
Type: in vivo
conditionParameters: 21 dpi; % of length of 2nd leaf blade; preventive 24 h; rate N/2.5 (g a.i./ha): ADF-16 40, penthiopyrad 80, metconazole 36, tebuconazole 100; control 81.7
resultType: Disease Severity Intensity

// solved cases for Disease Severity Intensity follow
# input Give its Disease Severity Intensity value. Item: CC(C)CC(C)c1sccc1NC(=O)c1cn(C)nc1C(F)(F)F (stereo not shown) [Penthiopyrad]
# output 0.0 +/− 0.0c %

# input Could you share which Disease Severity Intensity value was measured for CC(C)(C)C(O)(CCc1ccc(Cl)cc1)Cn1cncn1 (stereo not shown) [Tebuconazole] ?
# output 0.7 +/− 0.4bc %

# input # query: Disease Severity Intensity of entry Cc1ccc(S(=O)(=O)n2cc(F)c(=N)n(C)c2=O)cc1 [ADF-16]
# output 0.3 +/− 0.2c %

Attention now turns to another entry.
# input For CC1(C)CCC(Cc2ccc(Cl)cc2)C1(O)Cn1cncn1 (stereo not shown) [Metconazole] , what is its reported Disease Severity Intensity?
# output 2.1 +/− 0.8b %
